- SYSTEM TESTED: HLA-DRB1*04:01 (Homo sapiens, UniProt P01903+P01911, A100K/A169T/F76Y/I96L/K127E/L162R/M171V/N62H/P40V/Q125Y/R42H/S133A/S149N/S66Y/V115G/V209L/W38E)
- Construct: EBV transformed homozygous cell lines were used as sources of MHC molecules; endogenous in cells; host or cells: EBV transformed homozygous cell lines
- PROTOCOL NOTES: HLA class II peptide binding, inhibition of radiolabeled peptide binding to purified MHC
- EXPERIMENTAL SETUP: citrullinated 15-mer peptide (X = citrulline); purified HLA-DRB1*04:01; read-out: DRB1*04:01 binding capacity, Cit peptide (IC50 nM)
Square brackets hold non-standard residues; d marks the D form. Peptide text beside a SMILES is read from it. Cit = NC(=O)NCCC[C@H](N)C(=O)O
Some compounds, each annotated with its measured IC50.

COMPOUND | IC50
CC[C@H](C)[C@H](NC(=O)[C@H](CCC(=O)O)NC(=O)[C@H](CC(=O)O)NC(=O)[C@H](CCC(N)=O)NC(=O)[C@H](CC(C)C)NC(=O)[C@H](CCCNC(N)=O)NC(=O)CNC(=O)[C@@H](NC(=O)[C@@H](N)[C@@H](C)O)[C@@H](C)CC)C(=O)N[C@@H](CCC(N)=O)C(=O)N[C@@H](CC(N)=O)C(=O)N[C@@H](CCSC)C(=O)N[C@@H](CCCCN)C(=O)N[C@@H](CCC(=O)O)C(=O)N[C@@H](CCC(=O)O)C(=O)O [TIGXLQDEIQNMKEE] (H-TIG[Cit]LQDEIQNMKEE-OH) | 31800 nM
CC(C)[C@H](NC(=O)CNC(=O)[C@H](C)NC(=O)[C@H](C)NC(=O)CNC(=O)[C@H](CC(=O)O)NC(=O)[C@H](CCCNC(N)=O)NC(=O)CNC(=O)[C@@H]1CCCN1C(=O)[C@@H]1CCCN1C(=O)CNC(=O)[C@H](CC(=O)O)NC(=O)[C@H](C)NC(=O)CN)C(=O)N[C@@H](CCCCN)C(=O)O [GADGPPGXDGAAGVK] (H-GADGPPG[Cit]DGAAGVK-OH; N-terminus and C-terminus assumed) | > 40000 nM
CC(C)C[C@H](NC(=O)CNC(=O)[C@@H]1CCCN1C(=O)[C@H](Cc1ccccc1)NC(=O)CNC(=O)[C@H](CCCNC(N)=O)NC(=O)[C@H](CCC(=O)O)NC(=O)CNC(=O)[C@H](CCCNC(=N)N)NC(=O)[C@H](CCC(N)=O)NC(=O)CNC(=O)[C@@H]1CCCN1)C(=O)N1CCC[C@H]1C(=O)NCC(=O)N1CCC[C@H]1C(=O)O [PGQRGEXGFPGLPGP] (H-PGQRGE[Cit]GFPGLPGP-OH) | > 40000 nM

----------
In this section, each of the compounds is paired with its reported IC50.
- SYSTEM TESTED: HLA-DRB1*04:01 (Homo sapiens, UniProt P01903+P01911, A100K/A169T/F76Y/I96L/K127E/L162R/M171V/N62H/P40V/Q125Y/R42H/S133A/S149N/S66Y/V115G/V209L/W38E)
- Construct: EBV transformed homozygous cell lines were used as sources of MHC molecules; endogenous in cells; host or cells: EBV transformed homozygous cell lines
- PROTOCOL NOTES: HLA class II peptide binding, inhibition of radiolabeled peptide binding to purified MHC
- EXPERIMENTAL SETUP: citrullinated 15-mer peptide (X = citrulline); purified HLA-DRB1*04:01; read-out: DRB1*04:01 binding capacity, Cit peptide (IC50 nM)
Square brackets hold non-standard residues; d marks the D form. Peptide text beside a SMILES is read from it. Cit = NC(=O)NCCC[C@H](N)C(=O)O

COMPOUND | BOUND OPERATOR | IC50 [nM]
CC(C)C[C@H](NC(=O)CNC(=O)[C@H](CCCNC(=N)N)NC(=O)[C@H](CCC(=O)O)NC(=O)CNC(=O)[C@@H]1CCCN1C(=O)[C@H](CCC(=O)O)NC(=O)CNC(=O)[C@H](C)N)C(=O)N[C@@H](CCCCN)C(=O)NCC(=O)N[C@@H](Cc1c[nH]cn1)C(=O)N[C@@H](CCCNC(N)=O)C(=O)NCC(=O)N[C@@H](Cc1ccccc1)C(=O)O [AGEPGERGLKGHXGF] (H-AGEPGERGLKGH[Cit]GF-OH) | > | 40000
CSCC[C@H](NC(=O)[C@H](CCC(=O)O)NC(=O)[C@H](CCCNC(=N)N)NC(=O)[C@H](CCSC)NC(=O)[C@H](CCC(N)=O)NC(=O)[C@H](CCCNC(N)=O)NC(=O)[C@@H](N)CCC(=O)O)C(=O)N[C@@H](CCC(=O)O)C(=O)N[C@@H](CCC(=O)O)C(=O)N[C@@H](CC(N)=O)C(=O)N[C@@H](Cc1ccccc1)C(=O)N[C@@H](C)C(=O)N[C@H](C(=O)N[C@@H](CCC(=O)O)C(=O)N[C@@H](C)C(=O)O)C(C)C [EXQMREMEENFAVEA] (H-E[Cit]QMREMEENFAVEA-OH) | = | 1160
C[C@H](NC(=O)CNC(=O)[C@H](CCCCN)NC(=O)[C@@H]1CCCN1C(=O)CNC(=O)[C@@H](N)CC(=O)O)C(=O)N[C@@H](CCCNC(=N)N)C(=O)NCC(=O)N[C@@H](CC(=O)O)C(=O)N[C@@H](CO)C(=O)NCC(=O)N1CCC[C@H]1C(=O)N1CCC[C@H]1C(=O)NCC(=O)N[C@@H](CCCNC(N)=O)C(=O)O [DGPKGARGDSGPPGX] (H-DGPKGARGDSGPPG[Cit]-OH; N-terminus and C-terminus assumed) | > | 40000
CC[C@H](C)[C@H](NC(=O)[C@H](CC(C)C)NC(=O)[C@H](CC(C)C)NC(=O)[C@@H](NC(=O)[C@H](CCCNC(=N)N)NC(=O)[C@H](CCCCN)NC(=O)[C@H](CO)NC(=O)[C@H](Cc1c[nH]cn1)NC(=O)[C@@H](N)[C@@H](C)O)[C@@H](C)O)C(=O)N[C@@H](CCCCN)C(=O)N[C@H](C(=O)N[C@H](C(=O)N[C@@H](CCC(=O)O)C(=O)N[C@H](C(=O)N[C@@H](CCCNC(N)=O)C(=O)O)[C@@H](C)O)C(C)C)[C@@H](C)O [THSKRTLLIKTVETX] (H-THSKRTLLIKTVET[Cit]-OH) | = | 6020
CC(C)C[C@H](NC(=O)[C@H](C)NC(=O)[C@H](CC(=O)O)NC(=O)[C@@H](NC(=O)[C@H](CCC(=O)O)NC(=O)[C@H](CS)NC(=O)[C@@H](NC(=O)[C@H](CC(C)C)NC(=O)[C@H](CO)NC(=O)[C@H](CCC(N)=O)NC(=O)[C@@H](NC(=O)[C@H](CCC(N)=O)NC(=O)[C@@H](N)CCCNC(N)=O)C(C)C)[C@@H](C)O)C(C)C)C(=O)N[C@@H](CCCCN)C(=O)NCC(=O)O [XQVQSLTCEVDALKG] (H-[Cit]QVQSLTCEVDALKG-OH) | = | 15500

Where do these numbers come from? They come from paper PMC5421785.
